- test_system: Carbonic anhydrase 9 (Homo sapiens, UniProt Q16790)
- run_description: Inhibition of recombinant human CA9 preincubated for 15 mins by phenol red dye-based stopped-flow CO2 hydration assay
pKi: −log10 of the molar value.
measured_metric: pKi

{"columns": ["compound", "test_system", "pKi"],
 "data": [
  ["NS(=O)(=O)c1ccc(Nc2ncc3c(n2)CC(c2ccccc2)CC3=O)cc1 (centres undefined)", "Carbonic anhydrase 9 (Homo sapiens, UniProt Q16790)", 9.10],
  ["Cc1ncc2c(n1)CCc1cnn(-c3ccc(S(N)(=O)=O)cc3)c1-2", "Carbonic anhydrase 9 (Homo sapiens, UniProt Q16790)", 8.15],
  ["CC1(C)CC(=O)c2cnn(-c3ccc(S(N)(=O)=O)cc3)c2C1", "Carbonic anhydrase 9 (Homo sapiens, UniProt Q16790)", 9.06]
]}

I = NS(=O)(=O)c1ccc(-n2ncc3c2-c2cnc(-c4ccccc4)nc2CC3)cc1
II = NS(=O)(=O)c1ccc(-n2ncc3c2-c2cncnc2CC3)cc1
Of I and II , which one carries the higher reported pKi? Respond with the label that goes with your answer.
II

I = NS(=O)(=O)c1ccc(-n2ncc3c2CCCC3=O)cc1
II = NS(=O)(=O)c1ccc(-n2ncc3c2CC(c2ccccc2)CC3=O)cc1 (centres undefined)
Of I and II , which one carries the higher reported pKi? Respond with the label that goes with your answer.
II
(II: 9.14, I: 8.28)

a = CC1(C)CC(=O)c2cnc(Nc3ccc(S(N)(=O)=O)cc3)nc2C1
b = NS(=O)(=O)c1ccc(Nc2ncc3c(n2)CCCC3=O)cc1
Given the listed items, does a or b have the lesser reported pKi? Respond with the label that goes with your answer.
a
(a: 9.05, b: 9.26)

Cited source: ChEMBL document CHEMBL4145621
